System name: human Npt2a (Homo sapiens)
Sequence (Q06495 1-639): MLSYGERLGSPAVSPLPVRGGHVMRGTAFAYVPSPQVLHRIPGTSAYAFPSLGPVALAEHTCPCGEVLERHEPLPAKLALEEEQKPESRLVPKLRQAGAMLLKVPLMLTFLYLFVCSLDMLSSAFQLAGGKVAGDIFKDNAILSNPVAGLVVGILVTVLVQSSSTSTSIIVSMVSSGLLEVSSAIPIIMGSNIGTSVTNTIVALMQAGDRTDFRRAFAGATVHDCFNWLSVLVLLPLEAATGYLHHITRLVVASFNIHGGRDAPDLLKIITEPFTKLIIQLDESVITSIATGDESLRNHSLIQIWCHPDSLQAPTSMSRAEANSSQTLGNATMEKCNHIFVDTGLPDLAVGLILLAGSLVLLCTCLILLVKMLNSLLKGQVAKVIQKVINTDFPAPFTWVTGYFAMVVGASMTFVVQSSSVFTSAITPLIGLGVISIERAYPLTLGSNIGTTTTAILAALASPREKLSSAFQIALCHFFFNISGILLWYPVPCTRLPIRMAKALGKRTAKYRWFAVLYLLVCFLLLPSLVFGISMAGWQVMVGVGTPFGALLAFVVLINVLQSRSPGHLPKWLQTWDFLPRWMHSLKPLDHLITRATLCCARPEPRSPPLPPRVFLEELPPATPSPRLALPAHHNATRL
Protocol: Npt2a activity cell based assay, membrane potential dye, CHO T-REx hNpt2a cells
Experimental setup: doxycycline-induced, depolarization by sodium phosphate influx, average or median values if tested more than once
Measured metric: log10 IC50 (log10 of the value in nM)

COc1c(Nc2cc(-n3nc(C)c(C(O)C4CC4)c3C)ncn2)nn(C)c1-c1ccc(C#N)cc1 (racemic) | 1.66
CCc1c(Nc2cc(-n3cccn3)ncn2)nn(C)c1-c1ccc(F)cc1 | 2.82
Cc1nn(-c2cc(Nc3c(Cl)c(-c4ccc(F)cc4)nn3C)ncn2)c(C)c1Cl | 1.45
Cc1nn(-c2cc(Nc3c(C)c(-c4ccc(OC(F)(F)F)cc4)nn3CC3CC3)ncn2)c(C)c1Cl | 1.32
CCOC(=O)c1c(C)nn(-c2cc(Nc3c(CC)c(-c4ccc(F)cc4)nn3CC3CC3)ncn2)c1C | 0.48
CCOC(=O)c1c(C)nn(-c2cc(Nc3n[nH]c(-c4ccc(F)cc4)c3CC)ncn2)c1C | 1.45
Cc1nn(-c2cc(Nc3c(C)c(-c4ccc(C#N)cc4)nn3CC3CC3)ncn2)c(C(F)F)c1Cl | 0.48
Cc1cc(C)n(-c2cc(Nc3c(C)c(-c4ccc(F)cc4)nn3CC3CC3)ncn2)n1 | 1.08
Cc1nn(-c2cc(Nc3c(C)c(-c4ccc(C#N)cc4)nn3C)ncn2)c(C)c1Cl | 0.78
CCc1c(Nc2cc(-n3nc(C)c(C(=O)N4CC(F)(C(F)(F)F)C4)c3C)ncn2)nn(C)c1-c1ccc(F)cc1 | 2.11

###

Below: a set of entries, each annotated with reported pIC50.
System name: human Npt2a (Homo sapiens)
Protocol: Npt2a activity cell based assay, membrane potential dye, CHO T-REx hNpt2a cells
Experimental setup: doxycycline-induced, depolarization by sodium phosphate influx, average or median values if tested more than once
pIC50: −log10 of the molar value.
Measured metric: pIC50

Cc1nn(-c2cc(Nc3c(C)c(-c4ccc(F)cc4)nn3CC3CC3)ncn2)c(C)c1CC1(O)CC1 | 8.30
COc1c(-c2ccc(C#N)cc2)nn(C)c1Nc1cc(-n2nc(C)cc2C)ncn1 | 6.92
Cc1c(-c2ccc(C#N)cc2)nn(CC2CC2)c1Nc1cc(-n2nc(C)c3ccncc32)ncn1 | 8.70
CCOC(=O)c1c(C)nn(-c2cc(Nc3c(Cl)c(-c4ccc(F)cc4)nn3C)ncn2)c1C | 8.10
Cc1c(-c2ccc(C#N)cc2)nn(CC2CC2)c1Nc1cc(-n2cccn2)ncn1 | 6.47
Cc1cc(C(F)F)n(-c2cc(Nc3c(C)c(-c4ccc(C#N)cc4)nn3CC(F)F)ncn2)n1 | 7.55
CCOC(=O)c1c(C)nn(-c2cc(Nc3c(C)c(-c4ccc(F)cc4F)nn3C)ncn2)c1C | 6.82
CCc1c(Nc2cc(-n3ncc4c3CCC4)ncn2)n[nH]c1-c1ccc(F)cc1 | 6.34
Cc1cc(C)n(-c2cc(Nc3c(C)c(-c4ccc(F)cc4)nn3CC(C)(O)C3CC3)ncn2)n1 (racemic) | 5.96
COc1c(C)nn(-c2cc(Nc3c(C)nn(-c4ccc(F)cc4)c3C)ncn2)c1C | 7.47
Cc1c(-c2ccc(F)cc2)nn(CC2CC2)c1Nc1cc(-n2nc3c(c2C)C(C)(O)CC3)ncn1 (racemic) [Example 404] | 7.89
CCOC(=O)c1c(C)nn(-c2cc(Nc3c(Cl)c(-c4ccccc4)nn3C)ncn2)c1C | 7.51
Cc1nn(-c2cc(Nc3n[nH]c(-c4ccc(C#N)cc4)c3C)ncn2)c(C)c1Cl | 7.15
Cc1c(-c2ccc(F)cc2)nn(CC2CC2)c1Nc1cc(-n2cc(C(F)(F)F)cn2)ncn1 | 7.23
CCc1c(Nc2cc(-n3ncc4c3CN(C(=O)OC(C)(C)C)C4)ncn2)n[nH]c1-c1ccc(F)cc1 | 5.77
CCc1c(Nc2cc(-n3nc(C)c(CC4(O)CC4)c3C)ncn2)nn(C)c1-c1ccc(F)cc1 | 7.46
CCc1c(Nc2cc(-n3nc(C)c(C(=O)N4CCC(C(F)F)C4)c3C)ncn2)nn(C)c1-c1ccc(F)cc1 (stereo not shown) | 5.89
CCc1c(Nc2cc(-n3nc(C)c(C)c3O)ncn2)n[nH]c1-c1ccc(F)cc1 | 6.00
Cc1cc(C)n(-c2cc(Nc3nn(C)c(-c4ccc(C(F)(F)F)nc4)c3C)ncn2)n1 | 6.96

###

Below: a set of entries, each annotated with reported pIC50.
System name: UniProt Q06495
Protocol: Npt2a activity cell based assay, membrane potential dye, CHO T-REx hNpt2a cells
Experimental setup: doxycycline-induced, depolarization by sodium phosphate influx, average or median values if tested more than once
pIC50: −log10 of the molar value.
Measured metric: pIC50

CCc1c(-c2ccc(F)cc2)nn(C)c1Nc1cc(-n2nc(C)c(Cl)c2C)ncn1 | 7.12
Cc1nn(-c2cc(Nc3c(C)c(-c4ccc(F)cc4)nn3CC3CC3)ncn2)c(C)c1Cl | 7.85
Cc1nn(-c2cc(Nc3nn(C)c(-c4ccc(C#N)cc4)c3C)ncn2)c(C(F)F)c1Cl | 8.52
CCOC(=O)c1c(C)nn(-c2cc(Nc3c(Cl)c(-c4ccc(C#N)cc4)nn3CC3CC3)ncn2)c1C | 8.10
Cc1nn(-c2cc(Nc3c(C)c(-c4ccncc4)nn3CC3CC3)ncn2)c(C)c1C(C)(C)O | 6.77
CCOC(=O)c1c(C)nn(-c2cc(Nc3c(C)c(-c4ccc(C(F)(F)F)cc4)nn3C)ncn2)c1C | 6.66

Value source: patent US11208400B2
